molecular target: 5-hydroxytryptamine receptor 1A (Homo sapiens); assay: Displacement of [3H]8-OH-DPAT from human 5HT1A receptor transfected in HEK293-EBNA cells after 120 mins
Sequence (P08908 whole entry): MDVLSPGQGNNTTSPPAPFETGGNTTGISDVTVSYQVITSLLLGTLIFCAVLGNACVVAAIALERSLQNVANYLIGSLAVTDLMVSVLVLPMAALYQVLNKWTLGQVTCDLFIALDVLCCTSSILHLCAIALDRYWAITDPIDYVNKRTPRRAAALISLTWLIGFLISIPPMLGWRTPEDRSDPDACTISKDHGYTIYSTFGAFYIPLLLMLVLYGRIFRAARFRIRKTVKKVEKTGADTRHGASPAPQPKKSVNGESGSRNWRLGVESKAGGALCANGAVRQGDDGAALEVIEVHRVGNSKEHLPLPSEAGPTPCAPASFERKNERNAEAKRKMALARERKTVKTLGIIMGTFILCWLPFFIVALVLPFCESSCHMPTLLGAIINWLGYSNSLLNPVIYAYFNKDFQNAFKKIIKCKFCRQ
Measured pKi of individual entries
pKi here: minus log base 10 of the concentration, concentration in moles per litre.

COc1ccc(-c2ccccc2N2CCN(CCOCCC(=O)NCc3ccc(F)nc3)CC2)cc1 :: 6.25
Cc1ccccc1-c1ccccc1N1CCN(CCOCCC(=O)NCc2ccc(F)nc2)CC1 :: 6.06
COc1ccc(CNC(=O)CCCCCN2CCN(c3ncccc3-c3ccncc3)CC2)cc1 :: 6.21
O=C(CCOCCN1CCN(c2ccccc2-c2ccc(F)cc2)CC1)NCc1ccc(F)nc1 :: 6.36
COc1ccc(CNC(=O)CCOCCN2CCN(c3ccccc3-c3ccccc3C)CC2)cc1 :: 6.13
COc1ccccc1-c1cccc(N2CCN(CCOCCC(=O)NCc3ccc(F)nc3)CC2)c1 :: 6.41
O=C(CCCCCN1CCN(c2cccnc2-c2ccncc2)CC1)NCc1ccc(F)nc1 :: 6.02

# context switch: different compound, same pKi
QUERY: Entry O=C(CCCCCN1CCN(c2ncccc2-c2ccncc2)CC1)NCc1ccc(F)nc1 has what pKi?
RESULT: 6.69
